Recorded values, source the supplement of paper PMC12667976.

B1: library; numbered along this chain (parent)
chain: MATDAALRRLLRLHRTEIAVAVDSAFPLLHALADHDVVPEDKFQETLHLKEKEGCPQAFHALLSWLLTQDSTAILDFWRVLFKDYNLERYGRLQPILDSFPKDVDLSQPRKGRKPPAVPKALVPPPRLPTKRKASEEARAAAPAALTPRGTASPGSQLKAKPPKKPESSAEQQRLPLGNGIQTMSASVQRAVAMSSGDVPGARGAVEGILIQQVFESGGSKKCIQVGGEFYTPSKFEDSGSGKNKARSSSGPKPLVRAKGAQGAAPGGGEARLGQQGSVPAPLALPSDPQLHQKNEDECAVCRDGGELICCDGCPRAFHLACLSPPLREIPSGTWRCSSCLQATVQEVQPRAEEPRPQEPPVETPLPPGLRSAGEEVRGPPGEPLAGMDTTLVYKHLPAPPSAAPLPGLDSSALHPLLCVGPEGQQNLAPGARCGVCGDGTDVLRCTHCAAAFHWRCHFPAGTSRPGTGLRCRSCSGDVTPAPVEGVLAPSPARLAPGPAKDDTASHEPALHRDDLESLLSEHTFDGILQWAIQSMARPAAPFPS

variants of: B1; assay: AIRE transcriptional activation functional score (insulin promoter-GFP; nonsense median 0, synonymous median 1) (normalised score); higher = higher AIRE activity (more reporter activation); conditions: with insulin promoter-GFP reporter in HEK293
Threshold check on AIRE transcriptional activation functional score: at or above 0.7 gives Criterion met, strictly below gives Criterion not met.

Check this variant for AIRE transcriptional activation functional score at or above 0.7: R336K Criterion met

Determine whether measured AIRE transcriptional activation functional score meets or exceeds 0.7 for P331C Criterion met

hey, is AIRE transcriptional activation functional score for this one >= 0.7? P361C Criterion met

Form field: AIRE transcriptional activation functional score at least 0.7? Entry: A265R Criterion met

Check if AIRE transcriptional activation functional score >= 0.7 (inclusive). Item: D84F Criterion not met

Exam item: decide whether the reported AIRE transcriptional activation functional score for D478L is at least 0.7. Criterion met
